- TARGET DESC: Neurogenic locus notch homolog protein 3 (Homo sapiens)
- TEST NAME: NOTCH3 binders on small-molecule microarray, primary screen, biochemical, 635/667 nm fluorescence (AID 1096)
- CONDITION DESCRIPTION: NOTCH3 binding, 635 nm fluorescence, higher = more signal
MEASURED PARAMETER: composite z-score
Enter the number alone.

| COMPOUND | OBSERVED RESULT |
| --- | --- |
| COCCCNC(=O)[C@]1(Cc2ccccc2CN=[N+]=[N-])N=C(c2ccc(OCCCO)cc2)O[C@@H]1c1ccccc1 | 0.599 |
| COC(=O)[C@]1(CCS(=O)(=O)c2ccccc2)N=C(c2ccc(OCCCO)cc2)O[C@@H]1c1ccccc1CN=[N+]=[N-] | 0.941 |

**Query** Returns the measured composite z-score for the input compound. Input: "C=C(COC)/C(=C/C[C@@H](OC(=O)c1ccncc1)c1ccc(OCCO)cc1)c1cnc2ccccc2c1"
**Result** 1.01

**Query** Input "COc1ccc([Si](C)(C)[C@H]2[C@H](CCO)O[C@@]3(C(=O)N(Cc4cccc(N5CCCCC5=O)c4)c4ccccc43)[C@@H]2C)cc1"
**Result** 0.896

**Query** # repeat for "O=C1O[C@@H](c2ccccc2)[C@@H](c2ccccc2)N2[C@@H](c3ccc(O)cc3)[C@]3(C(=O)Nc4ccc(C#CC5=CCCCC5)cc43)[C@@H](C(=O)N3CCN(c4ncccn4)CC3)[C@H]12"
**Result** 1.15

**Query** What about C=CCC(OC(C)=O)[C@@H]1[C@@H](N(Cc2ccc(-c3ccccc3)cc2)C(=O)c2cccc3ccccc23)c2cc(OCCCO)ccc2N1C(=O)Cc1ccc2ccccc2c1 (stereo partly specified) ?
**Result** -0.377

====

- TARGET DESC: NADPH oxidase 4 (Homo sapiens)
- TEST NAME: NOX4-dependent H2O2 signal modulators, primary screen, NOX inhibitor project, cell-based, HEK293-NOX4, tetracycline-induced, Amplex Red fluorescence (AID 1160)
- CONDITION DESCRIPTION: 45 min, higher = more signal, called active from +8 up or from −8 down
MEASURED PARAMETER: z-score
Please reply with the number alone, leaving off any unit.

The examples below pair each entry with its known result.
| MOLECULE | z-score |
| --- | --- |
| COc1ccc(C#Cc2ccc3c(c2)[C@]2(C(=O)N3)[C@H](C(=O)N3CCc4cc(OC)c(OC)cc4C3)[C@H]3C(=O)O[C@H](c4ccccc4)[C@H](c4ccccc4)N3[C@@H]2c2ccc(O)cc2)cc1 | 0.574 |
| CN1C2C=C(CCCO)C(C3C(=O)N(C(N)=O)C(=O)C32)C1c1cccs1 (stereo not drawn) | -0.845 |
| COCCOC(=O)N1C(=O)[C@@]2(c3cc(C#CC4=CCCCC4)ccc31)[C@H](C(=O)N1CCN(c3ncccn3)CC1)[C@H]1C(=O)O[C@H](c3ccccc3)[C@H](c3ccccc3)N1[C@@H]2c1ccc(O)cc1 | 0.482 |

**Query** Record request: z-score value, item "COc1cc2c(cc1OC)CN(C(=O)[C@H]1[C@@H]3C(=O)O[C@@H](c4ccccc4)[C@@H](c4ccccc4)N3[C@@H](c3ccc(OCCO)cc3)[C@]13C(=O)Nc1ccc(C#CCCO)cc13)CC2"
**Result** 0.798

**Query** Note, next up: "COc1cc(CO)cc(I)c1O[C@H]1C=C(C(=O)NCCO)C[C@@H](NCc2ccccc2F)[C@@H]1O"
**Result** -0.344

**Query** For "[N-]=[N+]=NCc1ccccc1[C@H]1OC(c2ccc(OCCCO)cc2)=N[C@@]1(CCS(=O)(=O)c1ccccc1)C(N)=O" then?
**Result** 2.23

**Query** Okay, and O=C1NC(=O)C2C1C=CC(C(O)c1ccc(Br)cc1)N2Nc1ccccn1 (stereo not drawn) ?
**Result** -2.6

**Query** Same read-out for CC(C)OC(=O)CC(=O)CC(O)c1cccc(C#N)c1 (stereo not drawn) ?
**Result** 0.89

**Query** Now the same for CCOc1cc(C(O)C2C=CC3C(=O)N(C)C(=O)C3N2N2CCCCC2)ccc1O (stereo not drawn)
**Result** -3.83

**Query** And for "C[C@]1(C(=O)NCCN2CCOCC2)c2ccccc2C(=O)N(Cc2ccc(OC(F)(F)F)cc2)[C@H]1c1ccc(CO)cc1" ?
**Result** 1.19

**Query** Try the molecule "COCCOC(=O)N1C(=O)[C@@]2(c3cc(C#Cc4ccc(OC)cc4)ccc31)[C@H](C(=O)N1CCCCCCC1)[C@H]1C(=O)O[C@H](c3ccccc3)[C@H](c3ccccc3)N1[C@@H]2c1ccc(O)cc1"
**Result** -0.951

**Query** Another molecule: "C=C(COC)/C(=C/C[C@@H](OC(=O)c1ccncc1)c1cccc(OCCO)c1)c1cnc2ccccc2c1"
**Result** -0.256

**Query** What about this molecule? "C=C(CCCC)/C(=C/C[C@@H](OC(=O)c1ccncc1)c1cccc(OCCO)c1)c1cnc2ccccc2c1"
**Result** -0.36

**Query** "COc1cc2c(cc1OC)CN(C(=O)[C@@H]1[C@H]3C(=O)O[C@H](c4ccccc4)[C@H](c4ccccc4)N3[C@H](c3ccccc3OCCO)[C@@]13C(=O)Nc1ccc(C#CC4(O)CCCCCC4)cc13)CC2" ?
**Result** 0.934

**Query** What do you have for "C=CCN1C(=O)[C@@]2(O[C@@H](CCn3cc([C@H](O)c4ccccc4)nn3)[C@H]([Si](C)(C)c3ccc(OC)cc3)[C@H]2C)c2ccccc21" ?
**Result** 0.99
